Target Entity: UniProt:P06241
Sequence (P06241 whole entry): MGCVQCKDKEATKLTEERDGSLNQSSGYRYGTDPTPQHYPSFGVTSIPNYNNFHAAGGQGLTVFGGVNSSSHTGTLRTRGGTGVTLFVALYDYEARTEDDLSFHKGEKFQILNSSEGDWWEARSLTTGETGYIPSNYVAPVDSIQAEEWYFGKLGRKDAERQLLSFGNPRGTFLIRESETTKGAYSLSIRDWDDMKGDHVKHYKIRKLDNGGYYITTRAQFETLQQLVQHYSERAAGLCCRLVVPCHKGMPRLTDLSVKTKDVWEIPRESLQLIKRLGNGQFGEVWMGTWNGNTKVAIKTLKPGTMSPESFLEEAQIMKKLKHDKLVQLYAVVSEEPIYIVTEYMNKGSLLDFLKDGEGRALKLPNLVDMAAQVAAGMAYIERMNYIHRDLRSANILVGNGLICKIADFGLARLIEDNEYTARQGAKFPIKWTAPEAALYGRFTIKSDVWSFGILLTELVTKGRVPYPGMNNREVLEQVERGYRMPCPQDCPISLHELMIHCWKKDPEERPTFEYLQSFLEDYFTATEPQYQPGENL
Rule: IC50 below 500 nM gives label 1, anything at or above gives label 0.

Structure As Smiles: CNS(=O)(=O)c1ccc2c(c1)/C(=C/c1[nH]c3c(c1CN1CCOCC1)CCCC3)C(=O)N2
Target Entity: UniProt:P06241
Answer Label: label 1

Structure As Smiles: CNS(=O)(=O)c1ccc2c(c1)/C(=C/c1[nH]c3c(c1CCCN1CCN(C)CC1)CCCC3)C(=O)N2
Target Entity: UniProt:P06241
Answer Label: label 0

Structure As Smiles: CNS(=O)(=O)c1ccc2c(c1)/C(=C/c1[nH]c3c(c1CCC(N)=O)CCCC3)C(=O)N2
Target Entity: UniProt:P06241
Answer Label: label 1

Structure As Smiles: CCS(=O)(=O)c1ccc2c(c1)/C(=C/c1[nH]c3c(c1CCCN1CCN(C)CC1)CCCC3)C(=O)N2
Target Entity: UniProt:P06241
Answer Label: label 0
